assay-target: T1, human SEMA4A expressed on cells (UniProt ID Q9H3S1, isoform 1) (human, UniProt Q9H3S1 33-761)
T1 sequence: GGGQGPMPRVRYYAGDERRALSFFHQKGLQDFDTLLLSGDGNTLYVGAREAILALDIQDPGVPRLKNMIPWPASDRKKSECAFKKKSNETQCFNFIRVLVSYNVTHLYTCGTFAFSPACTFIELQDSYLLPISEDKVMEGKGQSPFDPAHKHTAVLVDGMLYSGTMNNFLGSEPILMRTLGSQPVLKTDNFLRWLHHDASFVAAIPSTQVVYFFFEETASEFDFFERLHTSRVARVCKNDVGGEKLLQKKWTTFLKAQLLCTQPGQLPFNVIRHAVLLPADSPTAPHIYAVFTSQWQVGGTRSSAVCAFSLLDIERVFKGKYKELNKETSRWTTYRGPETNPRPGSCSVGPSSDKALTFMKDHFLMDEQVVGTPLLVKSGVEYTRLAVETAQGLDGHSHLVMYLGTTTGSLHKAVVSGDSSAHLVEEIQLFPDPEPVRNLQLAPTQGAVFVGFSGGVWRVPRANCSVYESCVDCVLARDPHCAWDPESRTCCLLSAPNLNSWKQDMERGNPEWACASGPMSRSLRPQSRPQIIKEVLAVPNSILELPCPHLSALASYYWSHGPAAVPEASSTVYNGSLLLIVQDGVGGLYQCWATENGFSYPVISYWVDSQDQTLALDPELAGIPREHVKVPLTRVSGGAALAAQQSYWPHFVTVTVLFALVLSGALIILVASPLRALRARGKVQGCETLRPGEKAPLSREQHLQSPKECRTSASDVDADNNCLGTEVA
method: cell-based or functional assay
readout-kind: IC50 (pM), Fab-ZAP cell kill, NCI-H929

Given the binder 5Hg5-5Lg2 human Alya IgG1 (antibody, V domains shown, Humanised 5E3; human IgG1 Alya constant (239iCys, S442C, EU), lambda light chain; purified, unconjugated; also called 5HE5/5Lg2) VH: EVQLVQSGAEVKKPGESLRISCKGSGYSFTDYWMHWVRQMPGKGLEWMGAIDTSDSYTSYNQKFKGQVTISADKSISTAYLQWSSLKASDTAMYYCARDYGNFYYYAMDYWGQGTLVTVSS VL: QAVVTQEPSLTVSPGGTVTLTCRSSTGAVTTSNYANWFQQKPGQAPRTLIYGTNNRAPWTPARFSGSLLGGKAALTLLGAQPEDEAEYYCALWYSNHWVFGGGTKLTVL , what is its reported IC50 (pM), Fab-ZAP cell kill, NCI-H929?
167 pM

Okay, and 5Hg2-5Lg2 human Alya IgG1 (antibody, V domains shown, Humanised 5E3; human IgG1 Alya constant (239iCys, S442C, EU), lambda light chain; purified, unconjugated) VH: QVQLVQSGAEVKKPGASVKVSCKASGYTFTDYWMHWVRQAPGQRLEWMGAIDTSDSYTSYNQKFKGRVTITRDTSASTAYMELSSLRSEDTAVYYCARDYGNFYYYAMDYWGQGTLVTVSS VL: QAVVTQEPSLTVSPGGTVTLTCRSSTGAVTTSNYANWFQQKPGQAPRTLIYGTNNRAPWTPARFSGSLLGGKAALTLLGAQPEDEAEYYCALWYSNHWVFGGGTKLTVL ?
52 pM

Input 5Hg4-5Lg2 human Alya IgG1 (antibody, V domains shown, Humanised 5E3; human IgG1 Alya constant (239iCys, S442C, EU), lambda light chain; purified, unconjugated) VH: QVQLVQSGSELKKPGASVKVSCKASGYTFTDYWMHWVRQAPGQGLEWMGAIDTSDSYTSYNQKFKGRFVFSLDTSVSTAYLQICSLKAEDTAVYYCARDYGNFYYYAMDYWGQGTLVTVSS VL: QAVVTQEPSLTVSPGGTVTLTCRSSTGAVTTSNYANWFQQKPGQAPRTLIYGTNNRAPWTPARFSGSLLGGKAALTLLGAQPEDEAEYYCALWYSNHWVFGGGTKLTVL
151 pM

Could you do the same for 5Hg2-5Lg3 human Alya IgG1 (antibody, V domains shown, Humanised 5E3; human IgG1 Alya constant (239iCys, S442C, EU), lambda light chain; purified, unconjugated) VH: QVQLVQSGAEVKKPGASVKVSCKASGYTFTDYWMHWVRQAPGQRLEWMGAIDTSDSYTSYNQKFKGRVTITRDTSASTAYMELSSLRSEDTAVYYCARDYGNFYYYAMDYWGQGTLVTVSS VL: QTVVTQEPSFSVSPGGTVTLTCRSSTGAVTTSNYANWYQQTPGQAPRTLIYGTNNRAPGVPDRFSGSILGNKAALTITGAQADDESDYYCALWYSNHWVFGGGTKLTVL , please?
113 pM

Data provenance: patent US20250152729A1
